# experimentalSystem: mouse TLR8 (Mus musculus)
# Sequence (P58682 24-1032): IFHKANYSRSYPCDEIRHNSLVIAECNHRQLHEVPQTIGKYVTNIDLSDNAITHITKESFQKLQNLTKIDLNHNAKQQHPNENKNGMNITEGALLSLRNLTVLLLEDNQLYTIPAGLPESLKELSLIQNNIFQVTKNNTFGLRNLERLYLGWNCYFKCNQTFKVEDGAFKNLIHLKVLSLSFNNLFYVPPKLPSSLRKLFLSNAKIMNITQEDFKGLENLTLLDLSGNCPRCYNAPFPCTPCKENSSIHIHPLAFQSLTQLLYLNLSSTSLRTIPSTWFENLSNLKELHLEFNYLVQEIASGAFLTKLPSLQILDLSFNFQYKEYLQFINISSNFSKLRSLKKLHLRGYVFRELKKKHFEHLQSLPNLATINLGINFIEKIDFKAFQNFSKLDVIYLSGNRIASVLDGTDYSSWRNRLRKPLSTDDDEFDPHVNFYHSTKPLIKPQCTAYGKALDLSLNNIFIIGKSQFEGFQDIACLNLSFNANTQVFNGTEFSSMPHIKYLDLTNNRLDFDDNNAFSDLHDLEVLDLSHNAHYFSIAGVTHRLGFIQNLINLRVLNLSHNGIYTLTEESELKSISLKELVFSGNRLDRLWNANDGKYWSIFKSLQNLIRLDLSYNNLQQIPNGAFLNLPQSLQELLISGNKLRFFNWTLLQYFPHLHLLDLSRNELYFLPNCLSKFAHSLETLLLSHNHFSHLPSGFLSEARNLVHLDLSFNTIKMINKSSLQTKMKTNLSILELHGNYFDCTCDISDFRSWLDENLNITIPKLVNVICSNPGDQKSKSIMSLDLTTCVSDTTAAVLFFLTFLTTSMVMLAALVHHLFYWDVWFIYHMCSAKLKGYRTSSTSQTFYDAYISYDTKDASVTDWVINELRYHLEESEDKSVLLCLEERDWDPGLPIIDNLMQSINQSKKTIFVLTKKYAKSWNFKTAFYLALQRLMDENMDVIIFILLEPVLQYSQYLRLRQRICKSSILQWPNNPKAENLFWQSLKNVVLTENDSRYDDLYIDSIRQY
# testMethodNotes: HEK293 SEAP reporter assay, other TLRs (Biological Example 3)
# particulars: 16 hrs, up to 1 μM

[
  {
    "compound": "CCCCn1nc2c(N)nc3ccccc3c2c1Cc1ccc(CN)cc1",
    "EC50": "> 1 µM"
  },
  {
    "compound": "CCCCc1nc2c(N)nc3ccccc3c2n1Cc1ccc(CN)cc1 [Compound A, reference compound]",
    "EC50": "> 1 µM"
  }
]

* * *

Catalogue of molecules with associated pEC50
# experimentalSystem: mouse TLR5 (Mus musculus, UniProt Q9JLF7)
# Sequence (Q9JLF7 27-859): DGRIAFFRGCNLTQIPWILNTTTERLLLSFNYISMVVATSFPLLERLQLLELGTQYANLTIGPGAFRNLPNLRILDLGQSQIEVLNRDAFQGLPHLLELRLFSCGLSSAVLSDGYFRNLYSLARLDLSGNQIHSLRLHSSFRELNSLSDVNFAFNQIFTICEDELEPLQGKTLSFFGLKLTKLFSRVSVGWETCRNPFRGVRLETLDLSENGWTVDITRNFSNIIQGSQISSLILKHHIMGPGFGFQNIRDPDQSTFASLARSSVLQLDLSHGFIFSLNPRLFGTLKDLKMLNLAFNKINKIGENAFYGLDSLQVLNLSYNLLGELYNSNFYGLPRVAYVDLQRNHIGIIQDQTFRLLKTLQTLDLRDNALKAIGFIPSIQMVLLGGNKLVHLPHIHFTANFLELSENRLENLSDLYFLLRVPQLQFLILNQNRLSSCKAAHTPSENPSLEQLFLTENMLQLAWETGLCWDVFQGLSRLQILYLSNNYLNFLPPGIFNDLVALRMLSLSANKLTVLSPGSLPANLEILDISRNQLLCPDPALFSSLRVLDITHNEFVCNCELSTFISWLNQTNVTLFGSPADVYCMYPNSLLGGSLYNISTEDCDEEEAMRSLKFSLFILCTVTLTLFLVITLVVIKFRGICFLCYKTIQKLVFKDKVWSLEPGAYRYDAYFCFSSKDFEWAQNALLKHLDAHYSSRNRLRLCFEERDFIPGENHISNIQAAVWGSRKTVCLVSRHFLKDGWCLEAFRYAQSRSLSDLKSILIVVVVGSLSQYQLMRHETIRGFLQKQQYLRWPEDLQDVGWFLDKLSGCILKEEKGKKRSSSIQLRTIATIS
# testMethodNotes: HEK293 SEAP reporter assay, other TLRs (Biological Example 3)
# particulars: 16 hrs, up to 1 μM
pEC50: −log10 of the molar value.

[
  {
    "molecule": "CCCCn1nc2c(N)nc3ccccc3c2c1Cc1ccc(CN)cc1 [Compound 1]",
    "pEC50": "< 6.00"
  },
  {
    "molecule": "CCCCc1nc2c(N)nc3ccccc3c2n1Cc1ccc(CN)cc1 [Compound A, reference compound]",
    "pEC50": "< 6.00"
  }
]
